- System: Fibroblast
- assay_overview: Multiplex assay against human fibroblast
- Assay type: toxicity, cell-based
- measurement_context: 48 h, 10 µM, compound concentration 10 uM, replicate 1
measured_endpoint: Population Hoechst High Intensity Objects (%)
Write the number in % without appending the unit.

### Prompt Which Population Hoechst High Intensity Objects (%) value belongs to CC[C@H](C)C(=O)O[C@H]1C[C@@H](C)C=C2C=C[C@H](C)[C@H](CC[C@@H]3C[C@@H](O)CC(=O)O3)[C@H]21 ?
### Response 20

### Prompt Need Population Hoechst High Intensity Objects (%), item Cc1csc2c(N[C@@H](C)CN3CCN(S(=O)(=O)c4ccc(Cl)c(Cl)c4)CC3)ncnc12
### Response 40

### Prompt Could you share which Population Hoechst High Intensity Objects (%) value was measured for CN1CCN(CCOc2cc(OC3CCOCC3)c3c(Nc4c(Cl)ccc5c4OCO5)ncnc3c2)CC1 ?
### Response 35

### Prompt Requested field: Population Hoechst High Intensity Objects (%). Item: CN1CCCC(n2nc(Cc3ccc(Cl)cc3)c3ccccc3c2=O)CC1.Cl (configuration not stated) [AZELASTINE HYDROCHLORIDE]
### Response 30

### Prompt Which Population Hoechst High Intensity Objects (%) is listed for CN1CCN(c2ccc(OC(F)(F)F)c(Nc3ncc4c(n3)-c3c(c(C(N)=O)nn3CCO)CC4)c2)CC1 ?
### Response 23

### Prompt Item Cc1nc(-c2ccc(-c3ccc(C(=O)N4CCc5cc6c(cc54)C4(CCN(C)CC4)CO6)cc3)c(C)c2)no1 has what recorded Population Hoechst High Intensity Objects (%)?
### Response 33

### Prompt Quick one: Population Hoechst High Intensity Objects (%) for NC(=O)Nc1cc(-c2cccc(F)c2)sc1C(=O)N[C@H]1CCCNC1 ?
### Response 31

====

Would you mind telling me the reported Population Pyknosed Nuclei (%) of each entry?
- System: U2OS
- assay_overview: Multiplex assay against U2OS
- Type: toxicity, cell-based
- measurement_context: human, 24 h, 1 µM, compound concentration 1 uM, replicate 1
Write the number in % without appending the unit.

### Prompt Requested read-out Population Pyknosed Nuclei (%), target or system U2OS, entry COc1cccc([C@@H](C)NCCCc2ccccc2Cl)c1.Cl [TECALCET HYDROCHLORIDE]
### Response 20

### Prompt Record Cc1nc(Nc2n[nH]c3c2CN(C(=O)N[C@H](CN(C)C)c2ccccc2)C3(C)C)c2sccc2n1 [PF-03758309] : what is its Population Pyknosed Nuclei (%) with U2OS?
### Response 8

### Prompt Look up Population Pyknosed Nuclei (%) with U2OS for this molecule: C[C@@H](NCCCc1cccc(C(F)(F)F)c1)c1cccc2ccccc12.Cl [CINACALCET HYDROCHLORIDE]
### Response 12

### Prompt Test system U2OS; read-out Population Pyknosed Nuclei (%); what value for OC1(c2ccc(Cl)cc2)CCN(Cc2c[nH]c3ccccc23)CC1 ?
### Response 9

### Prompt Kindly state the measured Population Pyknosed Nuclei (%) obtained for CN1CCCC(n2nc(Cc3ccc(Cl)cc3)c3ccccc3c2=O)CC1.Cl (configuration not stated) [AZELASTINE HYDROCHLORIDE] with U2OS.
### Response 17

### Prompt Enter reported Population Pyknosed Nuclei (%) observed with U2OS for Cc1csc2c(N[C@@H](C)CN3CCN(S(=O)(=O)c4ccc(Cl)c(Cl)c4)CC3)ncnc12
### Response 13

### Prompt Write down the reported Population Pyknosed Nuclei (%) of Cc1cc(C)cc(-c2cnc3cc(Cl)c(-c4cccc(O)c4)cc3c2OCCCN)c1 , test system: U2OS.
### Response 14

### Prompt Lookup: Population Pyknosed Nuclei (%) / U2OS / CC(C)(O)CNc1ncc(-c2ccnc(Nc3ccnc(Cl)c3)n2)c(CC2CC2)n1
### Response 18

### Prompt Please tell me: Population Pyknosed Nuclei (%) of O=C1NCN(c2ccccc2)C12CCN(CCCOc1ccc(F)cc1)CC2 [SPIRAMIDE] , system U2OS?
### Response 11

### Prompt API: value(readout= Population Pyknosed Nuclei (%), system= U2OS, query= CN1CCN(c2ccc(OC(F)(F)F)c(Nc3ncc4c(n3)-c3c(c(C(N)=O)nn3CCO)CC4)c2)CC1 [ONVANSERTIB] )
### Response 12

### Prompt Provide the documented Population Pyknosed Nuclei (%) with U2OS as the system for CN1CCC[C@@H]1CCO[C@](C)(c1ccccc1)c1ccc(Cl)cc1.O=C(O)/C=C/C(=O)O [CLEMASTINE FUMARATE]
### Response 7

### Prompt Lab note: need Population Pyknosed Nuclei (%) for CN(C)C(=O)/C(C#N)=C/c1ccc(-c2nc3cnc4[nH]ccc4c3n2C2CCCCC2)o1 on U2OS, anyone have it?
### Response 8

### Prompt What is its Population Pyknosed Nuclei (%) for U2OS? Entry: NC(=O)Nc1cc(-c2cccc(F)c2)sc1C(=O)N[C@H]1CCCNC1 [AZD-7762]
### Response 32

### Prompt // map CN(C)CC#Cc1ccc(OCCCc2sc(N3CCc4cccc(C(=O)Nc5nc6ccccc6s5)c4C3)nc2C(=O)O)c(F)c1 [A-1155463] to recorded Population Pyknosed Nuclei (%) (system: U2OS)
### Response 21

### Prompt Short answer please: Population Pyknosed Nuclei (%), U2OS, entry Cc1[nH]c(/C=C2\C(=O)Nc3ccc(S(=O)(=O)N(C)c4cccc(Cl)c4)cc32)c(C)c1C(=O)N1CCN(C)CC1
### Response 11

### Prompt Kindly state the measured Population Pyknosed Nuclei (%) obtained for CCN(CC)CCCCNc1ncc2cc(-c3cc(OC)cc(OC)c3)c(NC(=O)NC(C)(C)C)nc2n1 [PD-173074] with U2OS.
### Response 74

### Prompt Record lookup: for U2OS, what Population Pyknosed Nuclei (%) belongs to Cc1c(-c2ccc(O)cc2)n(Cc2ccc(OCCN3CCCCCC3)cc2)c2ccc(O)cc12 [BAZEDOXIFENE] ?
### Response 17

### Prompt Kindly state the measured Population Pyknosed Nuclei (%) obtained for c1cn2cc(-c3ccc4cn[nH]c4c3)nc(Nc3ccc(N4CCOCC4)cc3)c2n1 [ENTOSPLETINIB] with U2OS.
### Response 16

### Prompt Recall the recorded Population Pyknosed Nuclei (%) for CN1CCN(CCOc2cc(OC3CCOCC3)c3c(Nc4c(Cl)ccc5c4OCO5)ncnc3c2)CC1 [SARACATINIB] with U2OS and state it.
### Response 13

### Prompt Item COc1ncc(-c2ccc3nccc(-c4ccnnc4)c3c2)cc1NS(=O)(=O)c1ccc(F)cc1F [OMIPALISIB] with U2OS - Population Pyknosed Nuclei (%)?
### Response 18

### Prompt Hello, I am looking for reported Population Pyknosed Nuclei (%) with U2OS for Cl.N#Cc1ccc2[nH]cc(CCCCN3CCN(c4ccc5oc(C(N)=O)cc5c4)CC3)c2c1 [VILAZODONE HYDROCHLORIDE] . Could you help?
### Response 12

### Prompt GET /values?readout=Population Pyknosed Nuclei (%)&system=U2OS&item= Cc1nc(-c2cn3c(n2)-c2ccc(-c4cnn(C(C)(C)C(N)=O)c4)cc2OCC3)n(C(C)C)n1 [TASELISIB]
### Response 13

### Prompt Lookup: Population Pyknosed Nuclei (%) / U2OS / Cc1nc(-c2ccc(-c3ccc(C(=O)N4CCc5cc6c(cc54)C4(CCN(C)CC4)CO6)cc3)c(C)c2)no1 [SB-224289]
### Response 9

### Prompt Any idea what Population Pyknosed Nuclei (%) came out for CC(C)NCC(O)COc1ccc(CCOCC2CC2)cc1.Cl (configuration not stated) [BETAXOLOL HYDROCHLORIDE] on U2OS?
### Response 7

### Prompt Return Population Pyknosed Nuclei (%) measured with U2OS given this molecule: Cn1cc(-c2[nH]c3cc(NC(=O)[C@H](N)C4CCCCC4)cc4c3c2C=NNC4=O)cn1
### Response 9

### Prompt Param readout= Population Pyknosed Nuclei (%); system= U2OS; entry= COc1cc(-n2cnc3cc(-c4ccc(Cl)cc4)sc3c2=O)ccc1OCCN1CCCC1 ; returns value.
### Response 16

### Prompt Request body: readout Population Pyknosed Nuclei (%), system U2OS, query C=CC(=O)Nc1cccc(C(=O)Nc2ccc(Nc3cc(-c4[nH]c(SC)nc4C)ccn3)cc2)c1 . Return the value.
### Response 10

### Prompt Lab request: please report Population Pyknosed Nuclei (%) under test system U2OS for C=CC(=O)Nc1cc2c(Nc3ccc(F)c(Cl)c3)ncnc2cc1OCCCN1CCOCC1.Cl.Cl [CANERTINIB DIHYDROCHLORIDE]
### Response 87

### Prompt Value wanted: Population Pyknosed Nuclei (%) (U2OS) of entry CNc1nc(NCc2ccc(NS(C)(=O)=O)cc2Cl)cc(-c2ccccn2)n1
### Response 11

### Prompt Form field - read-out: Population Pyknosed Nuclei (%); system: U2OS; submitted item: CN(C)C(=O)N[C@H]1CC[C@H](CCN2CCN(c3cccc(Cl)c3Cl)CC2)CC1.Cl [CARIPRAZINE HYDROCHLORIDE]
### Response 13

### Prompt So what Population Pyknosed Nuclei (%) did CC[C@H](C)C(=O)O[C@H]1C[C@@H](C)C=C2C=C[C@H](C)[C@H](CC[C@@H]3C[C@@H](O)CC(=O)O3)[C@H]21 [LOVASTATIN] get with U2OS?
### Response 8

### Prompt Requested read-out Population Pyknosed Nuclei (%), target or system U2OS, entry C[C@@]1(C(=O)Nc2ccc(F)nc2)CCCN1c1nc(Nc2cc(C3CC3)n[nH]2)c2cccn2n1 [BMS-754807]
### Response 24

Just for reference, ChEMBL document CHEMBL4689842 is where these values come from.
